// data source = the supplement of paper PMC10307832

- Test system: HARA
- Protocol notes: relative viability (nuclei count vs DMSO), 5 days (fraction); higher = more cells survive
- Run conditions: first compound 0.4 µM
Form field: relative viability (one value per entry).
Simply state the number, no unit and no words.

| Compound | relative viability |
| --- | --- |
| Clc1ccc(Nc2nnc(Cc3ccncc3)c3ccccc23)cc1 [Vatalanib] + Nc1ncn([C@H]2C[C@H](O)[C@@H](CO)O2)c(=O)n1 [Decitabine] (partner 2 µM) | 0.463 |
| COc1cc(N2CCC(C(N)=O)CC2)ccc1Nc1nc(N)c(Cl)c(Nc2ccccc2S(=O)(=O)C(C)C)n1 [HG-5-88-01] + CC(C)C[C@H](NC(=O)[C@H](Cc1ccccc1)NC(=O)c1cnccn1)B(O)O [Bortezomib] (partner 0.002 µM) | 1.07 |
| Clc1ccc(Nc2nnc(Cc3ccncc3)c3ccccc23)cc1 [Vatalanib] + CC(C)C[C@H](NC(=O)[C@H](Cc1ccccc1)NC(=O)c1cnccn1)B(O)O [Bortezomib] (partner 0.002 µM) | 1.23 |
| COc1cc(N2CCC(C(N)=O)CC2)ccc1Nc1nc(N)c(Cl)c(Nc2ccccc2S(=O)(=O)C(C)C)n1 [HG-5-88-01] + CC1(C)CCC(c2ccc(Cl)cc2)=C(CN2CCN(c3ccc(C(=O)NS(=O)(=O)c4ccc(N[C@H](CCN5CCOCC5)CSc5ccccc5)c(S(=O)(=O)C(F)(F)F)c4)cc3)CC2)C1 [Navitoclax] (partner 0.5 µM) | 1.13 |
| COc1cc(N2CCC(C(N)=O)CC2)ccc1Nc1nc(N)c(Cl)c(Nc2ccccc2S(=O)(=O)C(C)C)n1 [HG-5-88-01] + COc1cc2c(Oc3ccc(NC(=O)C4(C(=O)Nc5ccc(F)cc5)CC4)cc3F)ccnc2cc1OCCCN1CCOCC1 [Foretinib] (partner 0.25 µM) | 0.875 |
| C[C@@H]1CN(CC(=O)Nc2ccc3c(c2)Cc2cccc(-c4cc(=O)cc(N5CCOCC5)o4)c2S3)C[C@H](C)O1 + CC(=O)Nc1cccc(-n2c(=O)n(C3CC3)c(=O)c3c(Nc4ccc(I)cc4F)n(C)c(=O)c(C)c32)c1 [Trametinib] (partner 0.02 µM) | 0.602 |
| COc1cc(N2CCC(C(N)=O)CC2)ccc1Nc1nc(N)c(Cl)c(Nc2ccccc2S(=O)(=O)C(C)C)n1 [HG-5-88-01] + O=C(c1cc(Cc2n[nH]c(=O)c3ccccc23)ccc1F)N1CCN(C(=O)C2CC2)CC1 [Olaparib] (partner 8 µM) | 0.456 |

Attention now turns to another entry.
For this compound ( C[C@@H]1CN(CC(=O)Nc2ccc3c(c2)Cc2cccc(-c4cc(=O)cc(N5CCOCC5)o4)c2S3)C[C@H](C)O1 + Nc1ncn([C@H]2C[C@H](O)[C@@H](CO)O2)c(=O)n1 [Decitabine] (partner 2 µM) ), measured relative viability is 0.454
